target: GST-SP1 (UniProt P08047); assay: SPR; conditions: 5-methylcytosine at CpG (underlining lost in text; CpG C at 3, 13, 19); SPR VEGF165: DNA folded in 10 mM Tris-HCl, 100 mM KCl, pH 7.4, 25 °C; ELONA: DNA folded in TK (100 mM KCl) or 100 mM LiCl buffer, binding in TBS (10 mM …)
Sequence (P08047 whole entry): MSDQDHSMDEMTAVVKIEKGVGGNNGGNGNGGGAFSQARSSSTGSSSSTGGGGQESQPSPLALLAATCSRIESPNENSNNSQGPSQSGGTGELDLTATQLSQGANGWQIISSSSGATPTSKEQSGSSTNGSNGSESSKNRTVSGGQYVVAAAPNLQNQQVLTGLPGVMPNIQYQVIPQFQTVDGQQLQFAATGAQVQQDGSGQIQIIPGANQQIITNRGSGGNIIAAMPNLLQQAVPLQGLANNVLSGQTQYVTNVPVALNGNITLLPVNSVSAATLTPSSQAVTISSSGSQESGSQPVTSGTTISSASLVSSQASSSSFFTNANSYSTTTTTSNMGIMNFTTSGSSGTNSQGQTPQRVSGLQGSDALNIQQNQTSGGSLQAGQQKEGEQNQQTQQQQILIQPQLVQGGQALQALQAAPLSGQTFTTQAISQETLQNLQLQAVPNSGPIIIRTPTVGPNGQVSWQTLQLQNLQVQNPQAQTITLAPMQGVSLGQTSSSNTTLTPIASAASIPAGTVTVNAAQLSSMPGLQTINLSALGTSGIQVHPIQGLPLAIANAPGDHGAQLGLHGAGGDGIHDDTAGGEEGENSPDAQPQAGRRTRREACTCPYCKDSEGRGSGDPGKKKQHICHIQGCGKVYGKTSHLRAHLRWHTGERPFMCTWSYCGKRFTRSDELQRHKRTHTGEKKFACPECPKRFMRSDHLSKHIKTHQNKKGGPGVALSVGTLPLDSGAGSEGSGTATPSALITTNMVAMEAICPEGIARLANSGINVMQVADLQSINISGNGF
Measure Name: Kd (nM)
Numbers only, in nM.

Fill in reported Kd for this entry: GGCGAGGAGGGGCGTGGCCGGC [c-KIT G4 methylated] 11
